target: PDE4B2 (Homo sapiens, UniProt Q07343); construct: made in house; host or cells: baculovirus, SF21 insect cells (virus made in SF9); 1000xg supernatant of the homogenate; assay: PDE4B2 inhibition, Method B (modified SPA test, recombinant enzyme); format: biochemical; conditions: 0.5 μM cAMP, read-out: PDE4 [−log IC50, mol/l] (converted)
PROPERTY MEASURED: IC50 (nM)

Please review the following examples before continuing.
CCOc1cc2c(cc1OC)C(c1ccc(C(=O)N(C(C)C)[C@@H](C)COCCCc3ccccc3)cc1)=N[C@@H]1CCN(C)C[C@H]21 [Compound 21]: 2
CCOc1cc2c(cc1OC)C(c1ccc(C(=O)N(C(C)C)[C@@H](C)COCc3cc(OC)cc(OC)c3)cc1)=N[C@@H]1CCN(C)C[C@H]21 [Compound 17]: 0.316
CCOc1cc2c(cc1OC)C(c1ccc(C(=O)N(C(C)C)[C@@H](C)COCc3ccc(C#N)cc3)cc1)=N[C@@H]1CCN(C)C[C@H]21 [Compound 19]: 0.398

A = CCOc1cc2c(cc1OC)C(c1ccc(C(=O)N(C(C)C)[C@@H](C)COCc3ccc(C(F)(F)F)cc3)cc1)=N[C@@H]1CCN(C)C[C@H]21 [Compound 18]
B = CCOc1cc2c(cc1OC)C(c1ccc(C(=O)N(C(C)C)[C@@H](C)COCc3ccc(OC)cc3)cc1)=N[C@@H]1CCN(C)C[C@H]21 [Compound 20]
IC50 comparison. Which is larger, A or B ? Pick one and reply with its label.
A

---

biological target: PDE3 (cGMP-inhibited) in homogenates of human platelets (Homo sapiens, UniProt Q14432); construct: investigated in homogenates of human platelets; from tissue; host or cells: homogenates of human platelets; assay: PDE3 inhibition, Method A (radioactive PDE assay after Thompson et al.); type: biochemical; conditions: read-out: PDE3 [−log IC50, mol/l] (converted)
Sequence (Q14432 whole entry): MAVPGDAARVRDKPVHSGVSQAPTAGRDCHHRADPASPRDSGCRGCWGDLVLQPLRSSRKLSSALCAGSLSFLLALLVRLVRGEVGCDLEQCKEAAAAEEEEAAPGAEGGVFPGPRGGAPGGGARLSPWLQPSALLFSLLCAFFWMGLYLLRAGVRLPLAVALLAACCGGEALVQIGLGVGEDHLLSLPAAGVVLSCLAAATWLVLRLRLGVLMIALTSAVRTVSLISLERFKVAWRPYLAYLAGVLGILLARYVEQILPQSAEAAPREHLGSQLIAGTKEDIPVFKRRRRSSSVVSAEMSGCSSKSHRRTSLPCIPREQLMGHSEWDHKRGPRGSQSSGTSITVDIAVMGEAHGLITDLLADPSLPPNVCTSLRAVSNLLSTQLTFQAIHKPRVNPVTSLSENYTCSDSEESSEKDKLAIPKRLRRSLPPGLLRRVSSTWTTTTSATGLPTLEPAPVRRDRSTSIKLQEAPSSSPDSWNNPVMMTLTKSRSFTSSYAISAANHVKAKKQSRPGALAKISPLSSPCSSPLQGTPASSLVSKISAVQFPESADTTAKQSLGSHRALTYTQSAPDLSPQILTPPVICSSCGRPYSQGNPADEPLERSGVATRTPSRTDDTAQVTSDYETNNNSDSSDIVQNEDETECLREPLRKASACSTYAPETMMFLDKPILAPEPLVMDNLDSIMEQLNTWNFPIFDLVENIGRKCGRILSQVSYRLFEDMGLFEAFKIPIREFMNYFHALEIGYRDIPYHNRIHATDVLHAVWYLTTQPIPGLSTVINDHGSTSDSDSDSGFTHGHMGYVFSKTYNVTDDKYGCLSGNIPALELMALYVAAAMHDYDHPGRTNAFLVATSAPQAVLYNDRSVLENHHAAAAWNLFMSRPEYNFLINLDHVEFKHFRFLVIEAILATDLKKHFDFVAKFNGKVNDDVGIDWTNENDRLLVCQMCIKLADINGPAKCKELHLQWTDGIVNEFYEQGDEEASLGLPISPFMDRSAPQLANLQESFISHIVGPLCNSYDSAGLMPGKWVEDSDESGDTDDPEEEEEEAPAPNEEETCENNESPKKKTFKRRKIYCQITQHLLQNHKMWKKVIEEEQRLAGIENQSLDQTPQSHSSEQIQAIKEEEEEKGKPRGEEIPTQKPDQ
PROPERTY MEASURED: IC50 (nM)

CCOc1cc2c(cc1OC)C(c1ccc(C(=O)N(CCOC)C(C)C)cc1)=N[C@@H]1CCN(C)C[C@H]21.Cl [Compound 7, hydrochloride]: 79.4
CCOc1cc2c(cc1OC)C(c1ccc(C(=O)N(C)[C@H](COCc3ccccc3)CC(C)C)cc1)=N[C@@H]1CCN(C)C[C@H]21 [Compound 22]: 63.1
CCOCCCNC(=O)c1ccc(C2=N[C@@H]3CCN(C)C[C@@H]3c3cc(OCC)c(OC)cc32)cc1.Cl [Compound 4, hydrochloride]: 794
CCOc1cc2c(cc1OC)C(c1ccc(C(=O)NCCOC)cc1)=N[C@@H]1CCN(C)C[C@H]21.Cl [Compound 14, hydrochloride]: 1000
CCOc1cc2c(cc1OC)C(c1ccc(C(=O)N(Cc3ccccc3)[C@@H](C)COCc3ccccc3)cc1)=N[C@@H]1CCN(C)C[C@H]21 [Compound 23]: 158

A = CCOc1cc2c(cc1OC)C(c1ccc(C(=O)N[C@@H](C)COC)cc1)=N[C@@H]1CCN(C)C[C@H]21.Cl [Compound 2, hydrochloride]
B = CCOc1cc2c(cc1OC)C(c1ccc(C(=O)N(CCCOC)C3CCCCC3)cc1)=N[C@@H]1CCN(C)C[C@H]21.Cl [Compound 13, hydrochloride]
C = CCOc1cc2c(cc1OC)C(c1ccc(C(=O)N(C(C)C)[C@@H](C)COCc3ccccc3)cc1)=N[C@@H]1CCN(C)C[C@H]21 [Compound 9]
D = CCCCOCCCNC(=O)c1ccc(C2=N[C@@H]3CCN(C)C[C@@H]3c3cc(OCC)c(OC)cc32)cc1.Cl [Compound 16, hydrochloride]
E = CCOc1cc2c(cc1OC)C(c1ccc(C(=O)N(C(C)C)[C@@H](C)COC)cc1)=N[C@@H]1CCN(C)C[C@H]21.Cl [Compound 11, hydrochloride]
Hey, quick one: sort these by IC50, low to high? Submit the labels in the order that the ranking request calls for.
C, E, B, D, A
(C: 15.8 nM, E: 79.4 nM, B: 200 nM, D: 398 nM, A: 1580 nM)

P = CCOc1cc2c(cc1OC)C(c1ccc(C(=O)N(CCOC)C3CCCCC3)cc1)=N[C@@H]1CCN(C)C[C@H]21.Cl [Compound 12, hydrochloride]
Q = CCOc1cc2c(cc1OC)C(c1ccc(C(=O)N(C)CCOC)cc1)=N[C@@H]1CCN(C)C[C@H]21.Cl [Compound 15, hydrochloride]
IC50 comparison. Which is larger, P or Q ? Pick one and reply with its label.
Q

---

target: PDE3 (cGMP-inhibited) in homogenates of human platelets (Homo sapiens, UniProt Q14432); construct: investigated in homogenates of human platelets; from tissue; host or cells: homogenates of human platelets; test: PDE3 inhibition, Method A (radioactive PDE assay after Thompson et al.); type: biochemical; conditions: read-out: PDE3 [−log IC50, mol/l] (converted)
PROPERTY MEASURED: IC50 (nM)

CCOc1cc2c(cc1OC)C(c1ccc(C(=O)NC(CC)COC)cc1)=N[C@@H]1CCN(C)C[C@H]21.Cl (mixture of isomers) [Compound 3, hydrochloride]: 1000
CCOc1cc2c(cc1OC)C(c1ccc(C(=O)N(C(C)C)[C@H](C)COCc3ccccc3)cc1)=N[C@@H]1CCN(C)C[C@H]21 [Compound 8]: 31.6
CCOc1cc2c(cc1OC)C(c1ccc(C(=O)N[C@@H](C)COCc3ccccc3)cc1)=N[C@@H]1CCN(C)C[C@H]21 [Compound 24]: 251

I = CCCN(CCOC)C(=O)c1ccc(C2=N[C@@H]3CCN(C)C[C@@H]3c3cc(OCC)c(OC)cc32)cc1.Cl [Compound 6, hydrochloride]
II = CCOc1cc2c(cc1OC)C(c1ccc(C(=O)N(CC)CCOC)cc1)=N[C@@H]1CCN(C)C[C@H]21.Cl [Compound 5, hydrochloride]
Problem: Given the entries I and II , determine which has the lower reported IC50. Pick one and reply with its label.
I
(I: 126 nM, II: 200 nM)

1 = CCOc1cc2c(cc1OC)C(c1ccc(C(=O)NCCCOC(C)C)cc1)=N[C@@H]1CCN(C)C[C@H]21.Cl [Compound 1, hydrochloride]
2 = CCOc1cc2c(cc1OC)C(c1ccc(C(=O)N(C(C)C)C(C)CCOCc3ccccc3)cc1)=N[C@@H]1CCN(C)C[C@H]21 (mixture of isomers) [Compound 10]
IC50 comparison. Which is larger, 1 or 2 ? Pick one and reply with its label.
1
(1: 631 nM, 2: 100 nM)

---

biological target: PDE3A1 (Homo sapiens); construct: The whole ORF was subcloned into pBacPak9 (Clontech, Palo Alto) using EcoRI; made in house; host or cells: baculovirus (pBacPak9), SF21 insect cells (virus made in SF9); 1000xg supernatant of the homogenate; assay: PDE3A1 inhibition, Method B (modified SPA test, recombinant enzyme); type: biochemical; conditions: 0.5 μM cAMP, read-out: PDE3 [−log IC50, mol/l] (converted)
Sequence (Q14432 whole entry): as above
PROPERTY MEASURED: IC50 (nM)

Please review the following examples before continuing.
CCOc1cc2c(cc1OC)C(c1ccc(C(=O)N(C(C)C)[C@@H](C)COCCCc3ccccc3)cc1)=N[C@@H]1CCN(C)C[C@H]21: 39.8
CCOc1cc2c(cc1OC)C(c1ccc(C(=O)N(C(C)C)[C@@H](C)COCc3ccc(C#N)cc3)cc1)=N[C@@H]1CCN(C)C[C@H]21: 25.1
CCOc1cc2c(cc1OC)C(c1ccc(C(=O)N(C(C)C)[C@@H](C)COCc3cc(OC)cc(OC)c3)cc1)=N[C@@H]1CCN(C)C[C@H]21: 39.8

1 = CCOc1cc2c(cc1OC)C(c1ccc(C(=O)N(C(C)C)[C@@H](C)COCc3ccc(OC)cc3)cc1)=N[C@@H]1CCN(C)C[C@H]21
2 = CCOc1cc2c(cc1OC)C(c1ccc(C(=O)N(C(C)C)[C@@H](C)COCc3ccc(C(F)(F)F)cc3)cc1)=N[C@@H]1CCN(C)C[C@H]21
Problem: Given the entries 1 and 2 , determine which has the lower reported IC50. Pick one and reply with its label.
1

Origin of values: patent US7671068B2
